Origin of measurements: ChEMBL document CHEMBL4184180

test system: Mus musculus; test: Antitussive activity in ammonia liquor-induced cough ICR mouse model assessed as reduction in cough frequency at 50 mg/kg, po treated with ammonia 1 hr before and 5 hrs after test compound dosing measured for 3 mins relative to control; type: functional
Calls of active or inactive are those of the source. No cut-off for these calls is given here.
Answer with one of the outcomes given here: y (active), n (inactive)

structure.notation	class
O=C1C[C@@H](c2ccc(O)cc2)Oc2cc(O)ccc21	y

So what was the verdict on C=CC(C)(C)c1cc(/C=C/C(=O)c2ccc(O)cc2)c(OC)cc1O in this test? n

So what was the verdict on COc1cc(O)ccc1/C=C/C(=O)c1ccc(O)cc1 in this test? n

So what was the verdict on O=C(/C=C/c1ccc(O[C@@H]2O[C@H](CO)[C@@H](O)[C@H](O)[C@H]2O)cc1)c1ccc(O)cc1O in this test? n

So what was the verdict on O=C(/C=C/c1ccc(O)cc1)c1ccc(O)cc1O in this test? y

So what was the verdict on CC(C)=CCc1cc2c(=O)cc(-c3ccc(O)cc3)oc2cc1O in this test? n

So what was the verdict on COc1c(CC=C(C)C)c(O)cc2oc(=O)c(-c3ccc(O)cc3O)cc12 in this test? n

So what was the verdict on CC1(C)[C@@H](O[C@H]2O[C@H](C(=O)O)[C@@H](O)[C@H](O)[C@H]2O[C@@H]2O[C@H](C(=O)O)[C@@H](O)[C@H](O)[C@H]2O)CC[C@]2(C)[C@H]3C(=O)C=C4[C@@H]5C[C@@](C)(C(=O)O)CC[C@]5(C)CC[C@@]4(C)[C@]3(C)CC[C@@H]12 in this test? n

So what was the verdict on CC(C)=CCc1cc(-c2coc3cc(O)c(CC=C(C)C)c(O)c3c2=O)cc(O)c1O in this test? n

So what was the verdict on O=C1C[C@@H](c2ccc(O[C@@H]3O[C@H](CO)[C@@H](O)[C@H](O)[C@H]3O)cc2)Oc2cc(O)ccc21 in this test? y

So what was the verdict on O=C(/C=C/c1ccc(O[C@H]2O[C@@H](CO)[C@H](O)[C@@H](O)[C@@H]2O[C@@H]2OC[C@](O)(CO)[C@H]2O)cc1)c1ccc(O)cc1O in this test? n

----------
system: Mus musculus; experiment: Expectorant activity in ICR mouse assessed as increase in phenol red secretion in trachea at 50 mg/kg, po for 3 days followed by phenol red treatment at 30 mins post last dose measured after 30 mins by UV-Vis spectrophotometric assay relative to control; type: functional
Entries annotated with measured fold change (FC)
Please reply with the value in numeric form only.

> print(dat)
                                   molecule  readout.number
1    COc1ccccc1OCC(O)CO (centres undefined)               3
2     O=C1C[C@@H](c2ccc(O)cc2)Oc2cc(O)ccc21            1.57
3  O=C1C[C@@H](c2ccc(O[C@@H]3O[C@H](CO)[C@@H](O)[C@H](O)[C@H]3O)cc2)Oc2cc(O)ccc21             2.5

// next entry
Which fold change (FC) is reported for this molecule? O=C1C[C@@H](c2ccc(O[C@@H]3O[C@H](CO)[C@@H](O)[C@H](O)[C@H]3O[C@@H]3OC[C@](O)(CO)[C@H]3O)cc2)Oc2cc(O)ccc21 1.97
